Experiment: Vasorelaxant activity against U46619-induced contraction in bovine coronary artery ring treated after U46619 challenge
Format: functional, tissue-based
Settings: Bos taurus, read-out: EC50
Threshold 5 µM: EC50 strictly smaller gives 1 (yes), otherwise 0 (no).

Worked set:
1) CCCCCNC(=O)OCCCC/C=C\CCCCCCC(=O)O : 0 (no)
2) CCCCCC1CN=C(CCCC/C=C\CCCCCCC(=O)OC)O1 (configuration not stated) : 0 (no)
3) CCCCCN(C)C(=O)N(C)CCCCCCCC#CCCCC(=O)O : 1 (yes)
4) CCCCCNC(=O)NOCCC/C=C\CCCCCCC(=O)O : 1 (yes)
5) CCCCNC(=O)NCCCCC/C=C\CCCCCCC(=O)OC : 1 (yes)
6) CCCCCNC(=O)N(C)CCCC/C=C\CCCCCCC(=O)O : 0 (no)

*Q* Strictly below 5 µM: is that where EC50 of CCCCCNC(=O)NCCCC/C=C\CCC(=O)O sits?
*A* 0 (no)

*Q* Given CCCCCc1ccc(CCCC/C=C\CCCCCCC(=O)O)o1 , is recorded EC50 strictly lower than 5 µM?
*A* 0 (no)

*Q* A record lists CCCCCNC(=O)NCCCCCCC/C=C\CCCC(=O)O . Is its EC50 below 5 µM?
*A* 0 (no)

* * *

Experiment: Vasorelaxant activity against U46619-induced contraction in bovine coronary artery ring treated after U46619 challenge
Type: functional, tissue-based
Settings: Bos taurus, read-out: ED50 (the source's name)
VALUE KIND: EC50
Form field: result (number plus unit)

*Q* What does the record list as EC50 for CCCCC[C@@H]1O[C@@H]1C/C=C\C/C=C\C/C=C\CCCC(=O)O (relative stereo) ?
*A* 2200 nM

* * *

Experiment: Vasorelaxant activity against U46619-induced contraction in bovine coronary artery ring treated after U46619 challenge
Assay type: functional, tissue-based
Settings: Bos taurus, read-out: EC50
VALUE KIND: EC50 (µM)
Number in µM, nothing else.

*Q* Any idea what EC50 was measured for CCCCCNC(=O)NCCCC/C=C\CCCCCCC(=O)O ?
*A* 7.5

*Q* Look up EC50 for this compound: CCCCNC(=O)C(=O)NCCCC/C=C\CCCCCCC(=O)O
*A* 1.7

* * *

Biological target: Bifunctional epoxide hydrolase 2 (Homo sapiens, UniProt P34913)
Sequence (P34913 whole entry): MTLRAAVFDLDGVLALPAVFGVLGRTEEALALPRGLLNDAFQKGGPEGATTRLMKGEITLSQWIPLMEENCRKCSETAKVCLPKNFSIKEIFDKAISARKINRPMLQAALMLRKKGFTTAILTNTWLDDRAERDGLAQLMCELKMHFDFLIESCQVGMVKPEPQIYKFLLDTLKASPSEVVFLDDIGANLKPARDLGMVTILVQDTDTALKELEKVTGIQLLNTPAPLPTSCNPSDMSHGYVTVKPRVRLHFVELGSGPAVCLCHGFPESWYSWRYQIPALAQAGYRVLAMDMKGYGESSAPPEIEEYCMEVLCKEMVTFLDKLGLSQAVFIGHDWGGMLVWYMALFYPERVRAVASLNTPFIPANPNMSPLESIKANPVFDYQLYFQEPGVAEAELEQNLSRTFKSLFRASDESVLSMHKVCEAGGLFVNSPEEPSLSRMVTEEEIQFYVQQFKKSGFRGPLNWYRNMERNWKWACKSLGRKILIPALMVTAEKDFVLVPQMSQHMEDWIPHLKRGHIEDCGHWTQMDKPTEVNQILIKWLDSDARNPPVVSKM
Experiment: Inhibition of human recombinant soluble epoxide hydrolase expressed in baculovirus system assessed as appearance of 6-methoxynaphthaldehyde product by fluorescent-based assay
Grouping by measured IC50 is done with the following cut points: group A = under 0.7 µM, group B = from 0.7 µM up to 3 µM, group C = 3 µM and over

Field: example entries. Status: answers known.
1. CCCCCNC(=O)N(C)CCCC/C=C\CCCCCCC(=O)O : group A
2. CCCCCNC(=O)NCCCCC#CCCCCCCC(=O)O : group A
3. CCCCCNC(=O)NCCCCCCC/C=C\CCCC(=O)O : group B
4. CCCCCCC(=O)N(CCCC/C=C\CCCCCCC(=O)O)C(C)C : group C
5. CCCCCCNC(=O)CCCC/C=C\CCCCCCC(=O)O : group A

*Q* Category of CCCCCNC(=O)NCCCCC#CCCC(=O)O , please.
*A* group C

*Q* Bin this entry: CCCCCN(C)C(=O)N(C)CCCC/C=C\CCCCCCC(=O)O
*A* group C

*Q* Each molecule maps to one class by IC50. Which class for CCCCCNC(=O)NOCCC/C=C\CCCCCCC(=O)O ?
*A* group B

*Q* Which class holds CCNC(=O)NCCCC/C=C\CCCCCCCCCC(=O)O ?
*A* group B

*Q* # bin lookup: classify CCCCCOC(=O)NCCCC/C=C\CCCCCCC(=O)O by its IC50
*A* group B

*Q* Would you mind sorting CCCCCCNC(=O)NCCC/C=C\CCCCCCC(=O)O into the appropriate category?
*A* group A

*Q* Lab note: sort CCCCCc1cn(CCCC/C=C\CCCCCCC(=O)[O-])nn1.[Na+] into the matching IC50 band.
*A* group C

*Q* Pick a category. Item: CCCCCNC(=O)NCCCC/C=C/CCCCCCC(=O)O
*A* group A

*Q* # bin lookup: classify CCCCCNC(=O)NCCCC/C=C\CCC(=O)O by its IC50
*A* group B

*Q* Could you place CCCCCc1ccc(CCCC/C=C\CCCCCCC(=O)O)o1 in its proper category? Many thanks.
*A* group C
